System: N. gonorrhoeae clinical isolates
test_description: MIC, agar dilution (CLSI)
Assay type: cell-based, Neisseria gonorrhoeae
details: Neisseria gonorrhoeae, strain CDC80 (GCREF2013 028); read-out: MIC

compound	MIC / µg/mL
C=CC1=C(C(=O)O)N2C(=O)[C@@H](NC(=O)/C(=N\OCC(=O)O)c3csc(N)n3)[C@H]2SC1	0.125
CNc1cc(F)cc2c1[nH]c1nc(Oc3cnc(C)nc3)nc(N3CCC4(CC3)CO[C@@H](CO)C4)c12	0.0039
CC[C@H]1OC(=O)[C@H](C)[C@@H](O[C@H]2C[C@@](C)(OC)[C@@H](O)[C@H](C)O2)[C@H](C)[C@@H](O[C@@H]2O[C@H](C)C[C@H](N(C)C)[C@H]2O)[C@](C)(O)C[C@@H](C)CN(C)[C@H](C)[C@@H](O)[C@]1(C)O	8
CO/N=C(\C(=O)N[C@@H]1C(=O)N2C(C(=O)O)=C(CSc3nc(=O)c(=O)[nH]n3C)CS[C@H]12)c1csc(N)n1	0.008
